Exercise: for every item that follows, state its recorded inhibition.
Experiment: endothelial E-selectin expression blockers – imaging, HUVEC, immunofluorescence, MLSMR starter and 10KST1 sets, primary screen (AID 487);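 also: signal is fraction of cell area covered by stained E-selectin grains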
Conditions: HUVEC TNFalpha-induced E-selectin immunofluorescence imaging, at 2 µM; active compounds read high
Output spec: scalar in %, unitless text.

[in] State the recorded inhibition for this entry: CC1CCCCN1CCNC(=O)C1CCN(S(=O)(=O)c2cccc3cccnc23)CC1 (configuration not stated)
[out] -54.5

[in] Subsequent entry: CC1CCc2nn(CC(=O)NCc3ccc(F)cc3)cc2C1 (configuration not stated)
[out] -72.4

[in] Subsequent entry: O=C(CCCC(=O)N(CC(=O)NC1CCCCC1)Cc1ccc2c(c1)OCO2)Nc1ccccn1
[out] -237

[in] Subsequent entry: O=C(NCc1cccnc1)c1ccc(Cl)c(Cl)c1
[out] 16.9

[in] Subsequent entry: C=CCn1c(SCc2cc(=O)n3ccsc3n2)nnc1C1CCCCC1
[out] 3.6

[in] Subsequent entry: CN1CCc2nc(SCC(=O)Nc3ccc(F)cc3)c(C#N)cc2C1
[out] -75.1

[in] Subsequent entry: O=C1c2ccccc2C(Nc2ccc3c(c2)OCO3)N1Cc1ccc2c(c1)OCO2 (configuration not stated)
[out] -0.3

[in] Subsequent entry: Cc1ccc2cc(CN(CC3CCCO3)S(=O)(=O)c3ccc4c(c3)OCCO4)c(=O)[nH]c2c1C (configuration not stated)
[out] -42.1

[in] Subsequent entry: CCOc1ccccc1NC(=O)C1CCCN1C(=O)OCc1ccccc1 (configuration not stated)
[out] -406

[in] Subsequent entry: O=C(Nc1ccc(NC(=O)C2CC2)cn1)c1ccccc1Cl
[out] -79

[in] Subsequent entry: COC(=O)CCC(NC(=O)c1cc(-c2ccc3c(c2)OCCO3)oc1C)C(=O)OC (configuration not stated)
[out] 13.3

[in] Subsequent entry: Cc1cc(C(=O)Nc2c(C)n(C)n(-c3ccccc3)c2=O)c(C)o1
[out] 2

[in] Subsequent entry: COC(=O)C1CCN(C(=O)CN2C(=O)NC(CCc3ccccc3)C2=O)CC1 (configuration not stated)
[out] -16.4

[in] Subsequent entry: COc1ccc(NC(=O)c2ccco2)cc1NC(=O)c1cccs1
[out] 13.8

[in] Subsequent entry: CC1(C)CC(=O)c2cnc(NCc3ccco3)nc2C1
[out] -165

[in] Subsequent entry: O=C(CN(c1ccc(F)cc1)S(=O)(=O)c1ccc2c(c1)OCCO2)Nc1cccnc1
[out] -19.1

[in] Subsequent entry: O=C(c1ccc2snnc2c1)N1CCOCC1
[out] -50.1

[in] Subsequent entry: O=C(CSc1nc(-c2ccco2)cc(C(F)(F)F)n1)N1CCCc2ccccc21
[out] -20.9

[in] Subsequent entry: Cc1cc2c(c(=O)o1)C(C13C=CC(CC1)C3)C(C#N)=C(N)O2 (configuration not stated)
[out] -56.1

[in] Subsequent entry: CCN(c1cccc(C)c1)S(=O)(=O)c1ccc2[nH]c(=O)c(=O)[nH]c2c1
[out] -8.3

[in] Subsequent entry: c1ccc(CNc2ccc3c(c2)ncn3C2CCCCC2)nc1
[out] -12.5

[in] Subsequent entry: COC(=O)c1ccc(COc2ccc(C3C4=C(CCCC4=O)Nc4onc(C)c43)cc2)cc1 (configuration not stated)
[out] -68.7

---

Biological target: Voltage-gated potassium channel subunit beta-2 (Rattus norvegicus)
Test: inhibitors of rat Kvbeta2 reductase activity – biochemical, NADPH fluorescence, primary screen (AID 622);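 also: slope of raw intensity against log time taken from 70 to 1610 s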
Details: recombinant KvBeta, 4-cyanobenzaldehyde reduction, at 10 µM, active compounds read high
The source made the active and inactive calls.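 Rule for the calls: active = fluorescence slope higher than the sample average by over 3 SD (cut at about -0.22 in these data, passing the limit was not always enough); inactive = the rest.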
Exercise: for every item that follows, state its recorded fluorescence slope.

[in] State the recorded fluorescence slope for this entry: CNC(=O)CSc1nnc(-c2cccc(S(=O)(=O)N3CCOCC3)c2)n1-c1ccc(F)cc1
[out] -0.376 (inactive)

[in] Subsequent entry: COc1cccc(CN(C(=O)c2cc3ccccc3oc2=O)C2CC2)c1
[out] -0.51 (inactive)

[in] Subsequent entry: Cn1c(-c2ccccc2)cnc1SCc1nc2ccccc2c(=O)[nH]1
[out] -0.379 (inactive)

[in] Subsequent entry: O=C(CSc1nnc(SCc2ccc(Cl)cc2)s1)N1CCN(C(=O)c2ccco2)CC1
[out] -0.519 (inactive)

[in] Subsequent entry: Cc1ccc(OC(=O)CCC(=O)OCCCC(F)(F)C(F)(F)F)cc1
[out] -0.382 (inactive)

[in] Subsequent entry: Cc1ccc(S(=O)(=O)CCC(=O)Nc2ccc3c(c2)OCO3)cc1
[out] -0.587 (inactive)

[in] Subsequent entry: CCC(=O)c1ccc(OC(=O)c2ccc(Br)o2)cc1
[out] -0.605 (inactive)

[in] Subsequent entry: C[C@H](NC(=O)Nc1cccc(C(F)(F)F)c1)C(=O)O
[out] -0.547 (inactive)

[in] Subsequent entry: COC(=O)c1ccccc1NC(=O)Cn1c(-c2nonc2N)nc2ccccc21
[out] -0.537 (inactive)

[in] Subsequent entry: COc1ccc(-c2nsc(SCC(=O)Nc3cc(C)on3)n2)cc1
[out] -0.396 (inactive)

[in] Subsequent entry: C1=C(CCNc2ncnc3c2cnn3-c2ccccc2)CCCC1
[out] -0.375 (inactive)
